// data source = patent US20240350447A1

- assay.info: Biodistribution of DHA after periorbital skin (NIODP) application to one eye
- Assay type: in vivo, Cynomolgus monkeys
- condition.notes: cynomolgus monkey, vitreous humor of the dosed left eye (OS), topical; OS (dosed eye); 24 h; 6755.1 μg to OS via NIODP; read-out: DHA in vitreous humor
outcome.measure: concentration at 24 h
Reply with the number, then its unit.

[ask] Output measured concentration at 24 h for this item: CC/C=C\C/C=C\C/C=C\C/C=C\C/C=C\C/C=C\CCC(=O)O [DHA, docosahexaenoic acid]
[reply] 0 ng/mL

---

- assay.info: Biodistribution of DHA after periorbital skin (NIODP) application to one eye
- Type: in vivo, Cynomolgus monkeys
- condition.notes: cynomolgus monkey, retina of the undosed right eye (OD), topical; OD (undosed eye); 6 h; 6755.1 μg to OS via NIODP; read-out: DHA in retina
outcome.measure: concentration at 6 h (ng/g)
One number for each entry, in ng/g.

[ask] Determine its reported concentration at 6 h: CC/C=C\C/C=C\C/C=C\C/C=C\C/C=C\C/C=C\CCC(=O)O
[reply] 78200
